Test system: Setaria viridis
Experiment: Herbicidal pre-emergence action
Format: in vivo
Details: pre-emergence method, 80 g/ha, greenhouse, visual assessment vs untreated controls
Assign class by herbicidal effect SETVI: not lower than 80% means 1; lower than 80% means -1.

Given the entry CCc1cc(C)cc(CC)c1C1=C(O)C2CC(=NOC(C)(C)C)CC2C1=O (stereo not shown) , answer whether its herbicidal effect SETVI meets or surpasses 80%.
-1

And CCOC1COC2(CC3C(=O)C(c4c(CC)cc(C)cc4CC)=C([O-])C3C2)OC1.[Na+] (stereo not shown) ?
1

Lookup Cc1cc(C)c(C2=C(O)C3CC4(CC3C2=O)OCCO4)c(C)c1 (stereo not shown)
-1

Let us now turn to CCOC(=O)OC1=C(c2c(C)cc(C)cc2CC)C(=O)C2CC3(COC(C)(C)O3)CC12 (mixture of isomers)
-1

Next molecule up: CCc1cc(C)cc(CC)c1C1=C(O)[C@H]2CC3(C[C@H]2C1=O)OCC(OCc1ccccc1)CO3 (relative stereo)
1

Moving on to Cc1cc(C)c(C2=C(OC(=O)C(C)C)C3CC4(CC3C2=O)OCCCCO4)c(C)c1 (stereo not shown)
-1

And what about the molecule CCc1cc(C)cc(CC)c1C1=C(O)[C@H]2CC3(C[C@H]2C1=O)OC(C)(C)C(C)(C)O3 (relative stereo) ?
-1

Next molecule up: CCc1cc(C)cc(CC)c1C1=C(OC(=O)C(C)(C)C)C2CC3(COC(C)(C)O3)CC2C1=O (stereo not shown) [I-b-8]
1

Repeat for the following molecule: CCOC(=O)OC1=C(c2c(CC)cc(C)cc2CC)C(=O)C2CC3(CC12)OCCS3 (mixture of isomers)
-1

Please give the result for Cc1cc(C)c(C2=C([O-])C3CC4(CC3C2=O)OCC=CCO4)c(C)c1.[Na+] (stereo not shown) too.
-1

Ok, now CCc1cc(C)cc(CC)c1C1=C([O-])C2CC3(CC2C1=O)OC(C)CC(C)O3.[Na+] (mixture of isomers) [I-f-19]
1

Next entry: CCc1cc(C)cc(CC)c1C1=C(OC(=O)COC)C2CC3(COC(C)(C)O3)CC2C1=O (stereo not shown)
-1

Repeat with CCc1cc(C)cc(CC)c1C1=C(OC(=O)OC)C2CC3(CC2C1=O)OCCCO3 (stereo not shown)
-1

Param item: CCc1cc(C)cc(C)c1C1=C(O)C2CC3(CC2C1=O)OCCCO3 (stereo not shown)
1

Now the same for C=C1COC2(CC3C(=O)C(c4c(CC)cc(C)cc4CC)=C([O-])C3C2)OC1.[Na+] (stereo not shown)
1

How about `CCc1cc(C)cc(CC)c1C1=C(O)[C@H]2C[C@]3(COC(C)(C)O3)C[C@H]2C1=O` ?
-1

Would you kindly repeat that for C=C1COC2(C[C@@H]3C(OC(=O)OCC)=C(c4c(CC)cc(C)cc4CC)C(=O)[C@@H]3C2)OC1 (relative stereo) ?
1

Another molecule to look at: CCOC(=O)OC1=C(c2c(CC)cc(C)cc2CC)C(=O)C2CC3(CC12)OCC(C)(C)CO3 (racemic) [I-c-6]
-1

For CCc1cc(C)cc(CC)c1C1=C(OC(C)=O)C2CC3(CC2C1=O)OCCO3 (stereo not shown) then?
-1

Would you kindly repeat that for CCc1cc(C)cc(CC)c1C1=C(OC(=O)C(C)C)C2CC3(CC2C1=O)OCC(OCc1ccccc1)CO3 (stereo not shown) ?
1

Input CCc1cc(C)cc(CC)c1C1=C(OC(=O)OC(C)C)[C@H]2C[C@]3(COC(C)(C)O3)C[C@H]2C1=O (relative stereo)
-1

Continue with CCOC(=O)OC1=C(c2c(CC)cc(C)cc2CC)C(=O)C2CC3(CC12)OC(C)CC(C)O3 (mixture of isomers) [I-c-10]
1

Now give it for CCOC(=O)OC1=C(c2c(CC)cc(C)cc2CC)C(=O)[C@@H]2CC3(C[C@H]12)OCC=CCO3 (relative stereo) too.
1

Next up: CCc1cc(C)cc(CC)c1C1=C(OC(=O)OC)C2CC3(CC2C1=O)OCCS3 (mixture of isomers)
-1

// repeat for COc1cc(C)cc(C)c1C1=C([O-])C2CC3(CC2C1=O)OCCO3.[Na+] (stereo not shown) and report
-1

Lookup Cc1cc(C)c(C2=C([O-])C3CC4(CC3C2=O)OCCO4)c(C)c1.[Na+] (stereo not shown)
-1
